# Tested on: HS 578T breast
# ASSAY_DETAILS: NCI-60 one-dose screen, 48 h
# RECORDED_CONDITIONS: 10 µM unless noted
Compounds without any hit were thinned out: in the full panel of roughly 83,000, 20% have a hit. The source made the active and inactive calls. Rule for the calls: active = growth percent below 10; inactive = the rest.
Outcome codes: 1 for active, 0 for inactive

MOLECULE	ASSIGNED_CATEGORY
O=C1c2c(O)cc(O)cc2-c2c(-c3ccc(O)cc3)oc3cc(O)cc1c23	0
CCOc1cc2ncc(C#N)c(Nc3ccc(OCc4cccc(F)c4)c(Cl)c3)c2cc1NC(=O)CC1CCSS1 (stereo not given)	0
N#C/C(=C\c1ccc(-c2ccc(Cl)c(Cl)c2)o1)c1nc(-c2ccco2)cs1	0
CN1CCN(c2ccc(Nc3c4ccccc4nc4ccccc34)cc2)CC1	0
COc1cccc(/C=N/NC(=O)c2ccccc2Nc2ccnc(C(F)(F)F)c2)c1O	0
CC[C@H]1OC(=O)[C@H](C)[C@@H](O[C@H]2C[C@@](C)(OC)[C@@H](O)[C@H](C)O2)[C@H](C)[C@@H](O[C@@H]2O[C@H](C)C[C@H](N(C)C)[C@H]2O)[C@](C)(O)C[C@H](C)CN(C)[C@H](C)[C@@H](O)[C@]1(C)O	1
Cc1cc(Nc2ccc(C)c(Cl)c2)n2nc(C(F)(F)F)nc2n1	0
C=CCSSc1ncnc2c1ncn2C1OC(CO)C(O)C1O (stereo not given)	0
CCc1nnc(CNc2ccc(Cl)cc2)o1	0
NC(N)=N/N=C(/c1ccccc1)c1ccc(F)cc1	1
CCCn1c(=O)[nH]c(N)c([C@H]2c3ccccc3Oc3[nH]c(=O)n(CCC)c(=O)c32)c1=O	0
CSc1nc2c(c(=O)[nH]1)C1(C(=O)Nc3ccccc31)c1c(nc(SC)[nH]c1=O)N2	0
Cn1c(O)c(N=NC(=O)c2cc(-c3ccccc3)on2)c2ccccc21	0
CCCCN1CCCn2c1nc1c2c(=O)n(CCC)c(=O)n1CCC	0
COc1cc(-c2nc3ccccc3[nH]2)ccc1OCc1nnc(-c2ccc(CC(C)C)cc2)o1	0
COc1ccc(S(=O)(=O)N2CCCCC2)cc1NC(=O)c1[nH]c(C)c2c1CCCCC2=O	0
CC(=O)c1cc2c(N)c(C(=O)Nc3cccc(F)c3C)sc2nc1C	0
O=C1NC(=S)NC(=O)C1CC(=O)n1c(-c2ccccc2)nc2ccccc21	0
COc1cc(/C=C/C(=O)c2cccnc2Nc2ccc(F)cc2)cc(OC)c1OC	0
O=C(Nc1cccc2[nH]c(C(F)(F)F)nc12)c1ccc(-n2cnnn2)cc1	0
Cc1[nH]c(-c2ccc3cc[nH]c3c2)c2c1C(=O)CCCC2	0
COc1ccc(-c2cc(NC(=O)Nc3ccc4ncsc4c3)no2)cc1	0
CN1C(=O)C2(SCC(C(=O)NCc3ccccc3)N2C(=O)C2CCCCC2)c2ccccc21 (stereo not given)	0
COc1nc2c(c(=O)n1C)CN(Cc1ccccc1)C=N2	0
COc1cc2c(cc1O)CC[C@@H]1[C@@H]2CC[C@]2(C)[C@@H](NCCN(C)C)CC[C@@H]12	1

Value source: PubChem BioAssay (NCI)
